target: 5-hydroxytryptamine receptor 2B (Homo sapiens); assay: Agonist activity at human recombinant 5-HT2B receptor expressed in CHOK1 cells assessed as induction of Ca2+ mobilization at 30 uM after 1 hr by FLIPR assay relative to 5-HT; type: functional, cell-based; conditions: CHO-K1
Sequence (P41595 whole entry): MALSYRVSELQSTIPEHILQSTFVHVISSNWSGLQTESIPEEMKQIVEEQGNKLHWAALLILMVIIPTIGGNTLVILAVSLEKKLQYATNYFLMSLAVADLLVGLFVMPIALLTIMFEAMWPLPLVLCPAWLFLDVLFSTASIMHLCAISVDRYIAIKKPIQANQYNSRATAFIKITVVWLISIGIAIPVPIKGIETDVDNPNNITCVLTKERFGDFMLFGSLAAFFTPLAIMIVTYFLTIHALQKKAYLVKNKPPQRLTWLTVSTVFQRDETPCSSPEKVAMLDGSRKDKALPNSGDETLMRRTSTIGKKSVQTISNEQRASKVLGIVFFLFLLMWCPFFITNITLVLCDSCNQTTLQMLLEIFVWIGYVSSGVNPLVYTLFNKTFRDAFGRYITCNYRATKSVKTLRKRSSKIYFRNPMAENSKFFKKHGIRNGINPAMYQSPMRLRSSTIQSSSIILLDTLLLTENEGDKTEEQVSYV
Measurement kind: Emax (%)
Entry rule: numbers only, all in %.

**Q:** What does the record list as Emax for CNc1nc(Cc2ccccc2)cc2c1CCNCC2 ?
**A:** 69

**Q:** Could you share which Emax value was measured for CCCNc1nc(Cc2ccccc2)cc2c1CCNCC2 ?
**A:** 38

**Q:** Could you tell me which Emax is on file for c1ccc(Cc2cc3c(c(NCC4CC4)n2)CCNCC3)cc1 ?
**A:** 51

**Q:** Could you share which Emax value was measured for c1ccc(Cc2cc3c(cn2)CCNCC3)cc1 ?
**A:** 53

**Q:** Which Emax is listed for CN(C)c1nc(Cc2ccccc2)cc2c1CCNCC2 ?
**A:** 38

**Q:** State the recorded Emax for this entry: CC(C)Nc1nc(Cc2ccccc2)cc2c1CCNCC2
**A:** 32

**Q:** If you can, please state the reported Emax value of CCNc1nc(Cc2ccccc2)cc2c1CCNCC2 .
**A:** 28

###

target: 5-hydroxytryptamine receptor 2B (Homo sapiens); assay: Agonist activity at human recombinant 5-HT2B receptor expressed in CHOK1 cells assessed as induction of Ca2+ mobilization after 1 hr by FLIPR assay
Measurement kind: pEC50
Scale note: pEC50 = -log10(concentration in M).

**Q:** Consider the compound CC(C)Nc1nc(Cc2ccccc2)cc2c1CCNCC2 and give its measured pEC50.
**A:** 7.48

**Q:** # query: pEC50 of entry CNc1nc(Cc2ccccc2)cc2c1CCNCC2
**A:** 5.83

**Q:** Fill in the blank: the reported pEC50 of CCCNc1nc(Cc2ccccc2)cc2c1CCNCC2 is ____.
**A:** 7.57

**Q:** Given the entry c1ccc(Cc2cc3c(c(NCC4CC4)n2)CCNCC3)cc1 , report its measured pEC50.
**A:** 7.66

**Q:** Can you look up the measured pEC50 of c1ccc(Cc2cc3c(cn2)CCNCC3)cc1 for me?
**A:** 7.57

**Q:** Could you tell me which pEC50 is on file for CCNc1nc(Cc2ccccc2)cc2c1CCNCC2 ?
**A:** 7.74

**Q:** May I ask what pEC50 has been recorded for CN(C)c1nc(Cc2ccccc2)cc2c1CCNCC2 ?
**A:** 7.52

###

system: MDR1; experiment: Apparent permeability across apical to basolateral side in MDCK cells expressing MDR1; assay type: ADME, cell-based, Canis lupus familiaris; conditions: dog
Kindly state Papp A→B for each of the entries shown.
Field: value (include unit after the number)

**Q:** GET /values?readout=Papp A→B&system=MDR1&item= CCCNc1nc(Cc2ccccc2)cc2c1CCNCC2
**A:** 1.5 ×10⁻⁶ cm/s

**Q:** Please state recorded Papp A→B (tested on MDR1) of c1ccc(Cc2cc3c(c(NCC4CC4)n2)CCNCC3)cc1
**A:** 0.8 ×10⁻⁶ cm/s

**Q:** Lab request: please report Papp A→B under test system MDR1 for CCNc1nc(Cc2ccccc2)cc2c1CCNCC2
**A:** 1.8 ×10⁻⁶ cm/s

**Q:** Short answer please: Papp A→B, MDR1, entry CN(C)c1nc(Cc2ccccc2)cc2c1CCNCC2
**A:** 2.1 ×10⁻⁶ cm/s

**Q:** So what Papp A→B did c1ccc(Cc2cc3c(cn2)CCNCC3)cc1 get with MDR1?
**A:** 3.9 ×10⁻⁶ cm/s

**Q:** // fetch MDR1 Papp A→B for CNc1nc(Cc2ccccc2)cc2c1CCNCC2
**A:** 2.5 ×10⁻⁶ cm/s

**Q:** For MDR1, provide Papp A→B of c1ccc(CNc2nc(Cc3ccccc3)cc3c2CCNCC3)cc1 please.
**A:** 0.6 ×10⁻⁶ cm/s

###

assay: Permeability across dog RRCK cells; assay type: ADME, cell-based, Canis lupus familiaris, MDCKII-LE; conditions: MDCK, read-out: permeability
Threshold 8 ×10⁻⁶ cm/s: Papp strictly smaller gives 1, otherwise 0.

**Q:** Is Papp of c1ccc(CNc2nc(Cc3ccccc3)cc3c2CCNCC3)cc1 strictly below 8 ×10⁻⁶ cm/s?
**A:** 1

**Q:** Say whether its Papp is strictly beneath 8 ×10⁻⁶ cm/s. Entry: CCCNc1nc(Cc2ccccc2)cc2c1CCNCC2
**A:** 1

**Q:** Please let me know if c1ccc(Cc2cc3c(c(NCC4CC4)n2)CCNCC3)cc1 shows Papp below 8 ×10⁻⁶ cm/s.
**A:** 1

**Q:** Does this compound meet the criterion Papp < 8 ×10⁻⁶ cm/s? CCNc1nc(Cc2ccccc2)cc2c1CCNCC2
**A:** 1

**Q:** Find out if reported Papp for CC(C)Nc1nc(Cc2ccccc2)cc2c1CCNCC2 is less than 8 ×10⁻⁶ cm/s
**A:** 0

**Q:** Does this compound meet the criterion Papp < 8 ×10⁻⁶ cm/s? c1ccc(Cc2cc3c(cn2)CCNCC3)cc1
**A:** 0
